experiment: qHTS assay for identifying genotoxic compounds that show differential cytotoxicity against isogenic chicken DT40 cell lines with known DNA damage response pathways - wild type cell line (AID 743012); conditions: DT40 wild type chicken cells viability, CellTiter-Glo, 40 h; series mostly up to 68.4 µM; also: nearly all actives have a fitted effect of over 60% in size
Results filed as inconclusive are left out. Active and inactive are the calls of the source. Calls follow the shape of the dose curve; as a rule, active = well fitted cell-killing curve with a large enough effect in the repeat runs; inconclusive = weak or mixed curves, or effect the other way; inactive = no such curve, though single readings can be large or run the other way.
Answer with one of the outcomes true for active, false for inactive

Hi team, can someone confirm the assay call for `O=C(O)Cn1c(C(=O)Nc2nc(-c3ccccc3Cl)cs2)cc2ccccc21` ?
false

Hi team, can someone confirm the assay call for `c1ccc(OCc2ccc(CCCN3CCOCC3)cc2)cc1` ?
true

Hi team, can someone confirm the assay call for `O=C(/C=C/c1ccc(O)c(O)c1)O[C@@H]1C[C@](O)(C(=O)O)C[C@@H](O)[C@H]1O` ?
false

Hi team, can someone confirm the assay call for `NCCCN(CCO)CCO` ?
false

Hi team, can someone confirm the assay call for CC1=CCC(C(C)C)C=C1 (stereo unspecified) ?
false

Hi team, can someone confirm the assay call for `CC(C)(C)c1cc(O)c(C(C)(C)C)cc1O` ?
true

Hi team, can someone confirm the assay call for CCCCCC(CO)CCC (stereo unspecified) ?
false

Hi team, can someone confirm the assay call for CC(O)C1CCCCC1 (stereo unspecified) ?
false

Hi team, can someone confirm the assay call for `N#CCCNCCC#N` ?
false

Hi team, can someone confirm the assay call for `CCCCOC(=O)/C=C\C(=O)OCCCC` ?
false

Hi team, can someone confirm the assay call for `CC(C)c1cccc(C(C)C)c1NC(=O)NS(=O)(=O)c1cc(C(C)(C)O)co1` ?
false

Hi team, can someone confirm the assay call for N[C@H]1C(O)O[C@H](CO)[C@H](O)[C@@H]1O (stereo partly specified) ?
false

Hi team, can someone confirm the assay call for CC(C)(C)c1ccc(OCC2CO2)cc1 (stereo unspecified) ?
false

Hi team, can someone confirm the assay call for CC(Cc1cccc(C(F)(F)F)c1)NCCOC(=O)c1ccccc1 (stereo unspecified) ?
true

Hi team, can someone confirm the assay call for `C[Si](C)O[Si](C)(C)O[Si](C)(C)O[Si](C)C` ?
false

Hi team, can someone confirm the assay call for `CCCCCCCCCCCCCCCC(=O)OC/C=C(C)/C=C/C=C(C)/C=C/C1=C(C)CCCC1(C)C` ?
false

Hi team, can someone confirm the assay call for `CCCCCCc1ccc(N)cc1` ?
true

Hi team, can someone confirm the assay call for `c1ccc(CNCc2ccccc2)cc1` ?
true

Hi team, can someone confirm the assay call for `CCCCCCCCCC=O` ?
false

Hi team, can someone confirm the assay call for `Cc1ncsc1CCO` ?
false

Hi team, can someone confirm the assay call for `NC(N)=N/N=C/c1c(Cl)cccc1Cl` ?
true

Hi team, can someone confirm the assay call for `O=CNc1ccccc1` ?
false

Hi team, can someone confirm the assay call for `COC(=O)C(C)=O` ?
false

Hi team, can someone confirm the assay call for `COc1ccc(OC)c(OC)c1` ?
false

Hi team, can someone confirm the assay call for `ClC(Cl)(Cl)c1ccc(C(Cl)(Cl)Cl)cc1` ?
false

Hi team, can someone confirm the assay call for `S=C(S)NCCNC(=S)S` ?
false

Hi team, can someone confirm the assay call for `Cl/C(=C\n1cncn1)c1ccc(Cl)cc1Cl` ?
false

Hi team, can someone confirm the assay call for `CC(C)(C)c1cc(CO)cc(C(C)(C)C)c1O` ?
true

Hi team, can someone confirm the assay call for CCCCCCCCC(CO)CCCCCC (stereo unspecified) ?
false

Hi team, can someone confirm the assay call for `COCCOCCOCCOCCOC` ?
false

Hi team, can someone confirm the assay call for `Cc1ccc2c(ccc3ccccc32)c1` ?
false

Hi team, can someone confirm the assay call for `CCCCC(CC)(CO)CO` ?
false

Hi team, can someone confirm the assay call for `CC[C@H](C)[C@@H](C(=O)O)n1sc2ccccc2c1=O` ?
false

Hi team, can someone confirm the assay call for `CC(=O)CC(=O)c1ccccc1` ?
false

Hi team, can someone confirm the assay call for `C=C(C)C(=O)OCCN(C)C` ?
false

Hi team, can someone confirm the assay call for `CN(C)CC/C=C1\c2ccccc2COc2ccccc21` ?
true

Hi team, can someone confirm the assay call for `CCCCOCCOCCOCCOCCO` ?
false

Hi team, can someone confirm the assay call for `O=C(Cl)c1ccc([N+](=O)[O-])cc1` ?
false

Hi team, can someone confirm the assay call for `O=[N+]([O-])c1cc[n+]([O-])cc1` ?
true

Hi team, can someone confirm the assay call for CCCCOC(=O)c1ccccc1C(=O)OCC(CC)CCCC (stereo unspecified) ?
false

Hi team, can someone confirm the assay call for `Cc1cc(CC(=O)O)c(C)n1-c1ccc(Cl)cc1` ?
true
